B1: Azoarcus group I ribozyme (parent)
chain: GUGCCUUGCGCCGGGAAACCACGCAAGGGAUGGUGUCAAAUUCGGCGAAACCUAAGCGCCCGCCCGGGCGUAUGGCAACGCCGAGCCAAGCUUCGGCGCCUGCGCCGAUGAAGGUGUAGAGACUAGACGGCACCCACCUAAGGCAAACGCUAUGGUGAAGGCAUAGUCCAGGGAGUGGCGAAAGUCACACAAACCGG

Variants of: B1
Test: reverse-splicing fitness (ratio to wild type); higher = more active; in vitro selection; Mg2+ level not given
Attribute measured: reverse-splicing fitness
Output spec: single numeric token, no unit.

- C82U A120C A145G C150U C169A U176A: 0.0152
- C82U A111U A120U A145U C150A C169U U176A: 0.00233
- C82U A111C A120G A145C C150A C169A U176A: 0.011
- C82U A111G A120G C150G C169A: 0.00895
- C82U A111U A120U A145G C150A C169G U176C: 0.0045
- C82A A111G A145U C169A U176C: 0.0104

Given item C82G A111C A120G A145G C150G C169U U176C , the value recorded as its reverse-splicing fitness is 0.0127

For reference, reported reverse-splicing fitness for C82A A111U A120G A145C C169U U176C stands at 0.0136

Measured reverse-splicing fitness, A111G A120G A145U C150U C169U U176A : 0.0647

This collection of values is drawn from the RNAGym collection of RNA variant scans (doi:10.1093/molbev/msab373).
